ASSAY_NOTES: Selectivity ratio of Ki for sigma 2 receptor in rat liver membranes to Ki for sigma 1 receptor in guinea pig brain membranes
Format: cell membranes
EXPERIMENTAL_CONTEXT: Membrane
QUANTITY: Ratio Ki

> print(dat)
                              smiles.string  quantity  censoring.qualifier  observed.value
1       O=C1Cc2cscc2C2(CCN(Cc3ccccc3)CC2)O1  Ratio Ki                    =              18
2  O=C1OC2(CCN(Cc3ccccc3)CC2)c2csc(-c3ccccc3)c21  Ratio Ki                    =              21
3  COc1ccc(-c2csc3c2CC(=O)OC32CCN(Cc3ccccc3)CC2)cc1  Ratio Ki                    >              23
4  O=C1OC2(CCN(Cc3ccccc3)CC2)c2csc(-c3cccc4ccccc34)c21  Ratio Ki                    =             103
